# TEST_SYSTEM: ACVR2A on primary human myotubes (human, UniProt P27037 20-513)
# Sequence (P27037 20-513): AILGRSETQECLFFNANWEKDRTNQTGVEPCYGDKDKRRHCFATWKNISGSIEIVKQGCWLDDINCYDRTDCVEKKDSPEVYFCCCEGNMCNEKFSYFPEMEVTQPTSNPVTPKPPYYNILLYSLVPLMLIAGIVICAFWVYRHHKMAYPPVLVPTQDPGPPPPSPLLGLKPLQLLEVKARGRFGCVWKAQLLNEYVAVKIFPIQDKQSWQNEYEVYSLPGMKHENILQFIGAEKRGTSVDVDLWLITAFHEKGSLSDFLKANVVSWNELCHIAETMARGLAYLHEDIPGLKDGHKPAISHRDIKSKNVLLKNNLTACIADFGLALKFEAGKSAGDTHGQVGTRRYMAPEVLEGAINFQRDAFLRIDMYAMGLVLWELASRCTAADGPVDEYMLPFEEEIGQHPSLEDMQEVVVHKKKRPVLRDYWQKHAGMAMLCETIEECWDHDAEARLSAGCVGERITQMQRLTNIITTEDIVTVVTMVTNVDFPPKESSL
# EXPERIMENT_SUMMARY: cell-based or functional assay
For each of the binders below, state its Phospho-SMAD3 Human Skeletal Muscle GDF8.
One number for each entry.

For orientation, consider the following solved cases.
Lookup: Return value of Phospho-SMAD3 Human Skeletal Muscle GDF8 for input 370_D03 (antibody, V domains shown) VH: EVQLLESGGGLVQPGGSLRLSCAASGFTFSSYSMNWVRQAPGKGLEWVASINYNGGYTSYADSVKGRFTISRDNSKNTLYLQMNSLRAEDTAVYYCARGATWHDTHLDYWGQGTLVTVSS VL: DIQMTQSPSSLSASVGDRVTITCRASQSIITYLNWYQQKPGKAPKLLIYAATSRASGVPSRFSGSGSGTDFTLTISSLQPEDFATYYCQQSYDLPLTFGGGTKVEIK , no commentary.
Found: 0.0165

Lookup: Return value of Phospho-SMAD3 Human Skeletal Muscle GDF8 for input 376_F06 (antibody, V domains shown) VH: EVQLLESGGGLVQPGGSLRLSCAASGFTFSSYGMNWVRQAPGKGLEWVSGINYNGGYTGYADSVKGRFTISRDNSKNTLYLQMNSLRAEDTAVYYCARGANWHDTHLDYWGQGTLVTVSS VL: DIQMTQSPSSLSASVGDRVTITCRASQSILTYVNWYQQKPGKAPKLVIYAATSRASGVPSRFSGSGSGTDFTLTISSLQPEDFATYYCQQSYETPLTFGGGTKVEIK , no commentary.
Found: 0.0544

Lookup: Return value of Phospho-SMAD3 Human Skeletal Muscle GDF8 for input 375_E10 (antibody, V domains shown) VH: EVQLLESGGGLVQPGGSLRLSCAASGFTFSSYSMNWVRQAPGKGLEWVSGINYNGGYTSYADSVKGRFTISRDNSKNTLYLQMNSLRAEDTAVYYCARGANWHDTALDYWGQGTLVTVSS VL: DIQMTQSPSSLSASVGDRVTITCRASQSILSYLNWYQQKPGKAPKLVIYAATSRASGVPSRFSGSGSGTDFTLTISSLQPEDFATYYCQQSYDNPLTFGGGTKVEIK , no commentary.
Found: 0.0091

Lookup: Return value of Phospho-SMAD3 Human Skeletal Muscle GDF8 for input 374_D10 (antibody, V domains shown) VH: EVQLLESGGGLVQPGGSLRLSCAASGFTFSSYGMHWVRQAPGKGLEWVASINYNGGYTSYADSVKGRFTISRDNSKNTLYLQMNSLRAEDTAVYYCARGANWHDTHLDYWGQGTLVTVSS VL: DIQMTQSPSSLSASVGDRVTITCRASQSILTYVNWYQQKPGKAPKLLIYAATSRASGVPSRFSGSGSGTDFTLTISSLQPEDFATYYCQQSYDNPLTFGGGTKVEIK , no commentary.
Found: 0.126

Lookup: Return value of Phospho-SMAD3 Human Skeletal Muscle GDF8 for input 373_F07 (antibody, V domains shown) VH: EVQLLESGGGLVQPGGSLRLSCAASGFTFSSYSMNWVRQAPGKGLEWVSGINYNSGYKSYADSVKGRFTISRDNSKNTLYLQMNSLRAEDTAVYYCARGATWHDTHLDYWGQGTLVTVSS VL: DIQMTQSPSSLSASVGDRVTITCRASQSILSYLNWYQQKPGKAPKLLIYAATSLASGVPSRFSGSGSGTDFTLTISSLQPEDFATYYCQQSYETPLTFGGGTKVEIK , no commentary.
Found: 0.0069

Each of the following entries comes with a recorded value; kindly state Phospho-SMAD3 Human Skeletal Muscle GDF8 for each.
1. 376_H01 (antibody, V domains shown) VH: EVQLLESGGGLVQPGGSLRLSCAASGFTFSDYSMNWVRQAPGKGLEWVAGINYNGGYKGYADSVKGRFTISRDNSKNTLYLQMNSLRAEDTAVYYCARGANWHDTALDYWGQGTLVTVSS VL: DIQMTQSPSSLSASVGDRVTITCRASQSILTYLNWYQQKPGKAPKLLIYAATSRASGVPSRFSGSGSGTDFTLTISSLQPEDFATYYCQQSYSTPLTFGGGTKVEIK
2. 371_E12 (antibody, V domains shown) VH: EVQLLESGGGLVQPGGSLRLSCAASGFTFDSYSMNWVRQAPGKGLEWVSGINYNSGYKSYADSVKGRFTISRDNSKNTLYLQMNSLRAEDTAVYYCARGATWHDTHLDYWGQGTLVTVSS VL: DIQMTQSPSSLSASVGDRVTITCRASQSILSYLNWYQQKPGKAPKLLIYAATSLASGVPSRFSGSGSGTDFTLTISSLQPEDFATYYCQQSYDTPLTFGGGTKVEIK
3. 369_F09 (antibody, V domains shown) VH: EVQLLESGGGLVQPGGSLRLSCAASGFTFSSYGMHWVRQAPGKGLEWVAGINYNGGYTSYADSVKGRFTISRDNSKNTLYLQMNSLRAEDTAVYYCARGATWHDTHLDYWGQGTLVTVSS VL: DIQMTQSPSSLSASVGDRVTITCRASQSILTYVNWYQQKPGKAPKLLIYAATSRASGVPSRFSGSGSGTDFTLTISSLQPEDFATYYCQQSYDSPLTFGGGTKVEIK
4. 374_C09 (antibody, V domains shown) VH: EVQLLESGGGLVQPGGSLRLSCAASGFTFDSYGMNWVRQAPGKGLEWVSSINYNGGYKGYADSVKGRFTISRDNSKNTLYLQMNSLRAEDTAVYYCARGANWHDTHLDYWGQGTLVTVSS VL: DIQMTQSPSSLSASVGDRVTITCRASQSIVSYLNWYQQKPGKAPKLVIYAATSRASGVPSRFSGSGSGTDFTLTISSLQPEDFATYYCQQSYELPLTFGGGTKVEIK
5. 373_F08 (antibody, V domains shown) VH: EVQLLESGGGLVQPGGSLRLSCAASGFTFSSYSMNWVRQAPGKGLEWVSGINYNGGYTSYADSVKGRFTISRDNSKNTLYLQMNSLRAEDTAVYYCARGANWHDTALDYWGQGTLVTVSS VL: DIQMTQSPSSLSASVGDRVTITCRASQSILTYLNWYQQKPGKAPKLLIYAATSRASGVPSRFSGSGSGTDFTLTISSLQPEDFATYYCQQSYDTPLTFGGGTKVEIK

Found:
[0.0562, 0.0374, 0.0325, 0.189, 0.005]
